- Assay protocol: Intrinsic clearance in dog liver microsomes
Measured parameter: microsomal CLint (µL/min/mg)
The answer is to be given in µL/min/mg; state only the numeric part.

# annotated cases, reported microsomal CLint shown
[
  {
    "Compound": "Cc1noc2c1-c1ccc(-c3ccc(N)nc3)cc1N(c1ccc(C#N)cc1)CC2",
    "Quantitative readout": 165
  },
  {
    "Compound": "Cc1nnc2n1-c1ccccc1N(c1ccc(Cl)cc1)CC2C (centres undefined)",
    "Quantitative readout": 83
  },
  {
    "Compound": "Cc1nnc2n1-c1ccc(-c3ccc(N)nc3)cc1N(c1ccc(Cl)cc1)C[C@H]2C",
    "Quantitative readout": 19
  },
  {
    "Compound": "Cc1noc2c1-c1ccc(-c3ccc(=O)n(C)c3)cc1N(c1ccc(C#N)cc1)CC2C (centres undefined)",
    "Quantitative readout": 65
  },
  {
    "Compound": "Cc1nnc2n1-c1ccccc1N(c1ccc(Cl)cc1)CC2",
    "Quantitative readout": 390
  },
  {
    "Compound": "CCNC(=O)CC1CN(c2ccc(Cl)cc2)c2ccccc2-n2c(C)nnc21 (centres undefined)",
    "Quantitative readout": 33
  },
  {
    "Compound": "Cc1nnc2n1-c1ccc(-c3cnn(C)c3)cc1N(c1ccc(Cl)cc1)CC2",
    "Quantitative readout": 91
  },
  {
    "Compound": "Cc1noc2c1-c1ccc(-c3cnn(C)c3)cc1N(c1ccc(C#N)cc1)CC2CC(N)=O (centres undefined)",
    "Quantitative readout": 69
  }
]

Okay, next one:
Param item = Cc1nnc2n1-c1ccc(-c3ccc(N)nc3)cc1N(c1ccc(Cl)cc1)CC2C (centres undefined) ; retrieve measured microsomal CLint.
94

---

Assay read-out pIC50; system under study: Bromodomain-containing protein 4 (Homo sapiens).
Scale: pIC50 equals -log10([C]), with [C] in mol/L.

[
  {
    "Compound": "Cc1noc2c1-c1ccc(-c3cnn(CC(N)=O)c3)cc1N(c1ccc(C#N)cc1)CC2C (configuration not stated)",
    "Target under test": "Bromodomain-containing protein 4 (Homo sapiens)",
    "pIC50": 7.51
  }
]

# lookup: pIC50 of "Cc1nnc2n1-c1ccccc1N(c1ccc(Cl)cc1)CC2"
5.81

# iterate: Cc1noc2c1-c1ccc(-c3ccc(N)nc3)cc1N(c1ccc(C#N)cc1)CC2C (configuration not stated)
7.44

---

Quick reference for fraction unbound among some compounds
- Assay protocol: Protein binding in human plasma
- Assay type: ADME, cell-free
- Study conditions: read-out: PPB (converted)

Answered examples (3):
[
  {
    "Compound": "Cc1noc2c1-c1ccccc1N(c1ccc(C#N)cc1)CC2",
    "fraction unbound": "< 0.01"
  },
  {
    "Compound": "Cc1nnc2n1-c1ccc(-c3ccc(N)nc3)cc1N(c1ccc(Cl)cc1)CC2C (centres undefined)",
    "fraction unbound": 0.02
  },
  {
    "Compound": "Cc1noc2c1-c1ccc(-c3ccc(N)nc3)cc1N(c1ccc(C#N)cc1)CC2",
    "fraction unbound": "< 0.01"
  }
]

API: the following record is the query input.
Recorded fraction unbound of Cc1noc2c1-c1ccc(-c3ccc(N)nc3)cc1N(c1ccc(C#N)cc1)CC2C (centres undefined) , please.
< 0.01

---

- Target under test: Bromodomain-containing protein 4 (Homo sapiens, UniProt O60885)
IC50 values by entry
Output spec: scalar in nM, unitless text.

[
  {
    "Compound": "Cc1noc2c1-c1ccccc1N(c1ccc(C#N)cc1)CC2",
    "Measured parameter": "IC50",
    "Result units": "nM",
    "Quantitative readout": 550
  },
  {
    "Compound": "Cc1nnc2n1-c1ccc(C(N)=O)cc1N(c1ccc(Cl)cc1)C[C@H]2C",
    "Measured parameter": "IC50",
    "Result units": "nM",
    "Quantitative readout": 65
  },
  {
    "Compound": "Cc1nnc2n1-c1ccc(-c3ccc(=O)n(C)c3)cc1N(c1ccc(Cl)cc1)C[C@H]2C",
    "Measured parameter": "IC50",
    "Result units": "nM",
    "Quantitative readout": 25
  }
]

Which IC50 is reported for this compound? Cc1nnc2n1-c1ccccc1N(c1ccc(Cl)cc1)C(C)C2 (centres undefined)
1200

---

- Target under test: Bromodomain-containing protein 4 (Homo sapiens)
pIC50: −log10 of the molar value.
Reported pIC50 maps to class as: low interval = under 6, middle interval = from 6 up to 7, high interval = 7 and over

Look over these answered cases.
[
  {
    "Compound": "Cc1nnc2n1-c1ccccc1NCC2",
    "Label value": "low interval"
  },
  {
    "Compound": "CCNC(=O)CC1CN(c2ccc(Cl)cc2)c2ccccc2-n2c(C)nnc21 (stereo not given)",
    "Label value": "low interval"
  },
  {
    "Compound": "Cc1nnc2n1-c1ccccc1N(c1ccc(Cl)cc1)CC2C (stereo not given)",
    "Label value": "middle interval"
  },
  {
    "Compound": "Cc1nnc2n1-c1ccc(-c3ccc(N)nc3)cc1N(c1ccc(Cl)cc1)C[C@H]2C",
    "Label value": "high interval"
  },
  {
    "Compound": "Cc1noc2c1-c1ccc(-c3ccc(=O)n(C)c3)cc1N(c1ccc(C#N)cc1)CC2C (stereo not given)",
    "Label value": "high interval"
  },
  {
    "Compound": "Cc1ncnn1-c1ccc2c(c1)N(c1ccc(Cl)cc1)C[C@@H](C)c1nnc(C)n1-2",
    "Label value": "middle interval"
  }
]

Here is another compound to look at.
State the class of the compound shown: "Cc1ccc(-c2ccc3c(c2)N(c2ccc(Cl)cc2)C[C@@H](C)c2nnc(C)n2-3)cn1"
high interval

---

- Target under test: Bromodomain-containing protein 4 (Homo sapiens)
Measured parameter: pIC50
# reply with the number alone; pIC50 is -log10 of concentration in mol/L

Sample answers from the record:
[
  {
    "Compound smiles": "Cc1nnc2n1-c1ccc(-n3cncn3)cc1N(c1ccc(Cl)cc1)C[C@H]2C",
    "pIC50": 7.13
  },
  {
    "Compound smiles": "Cc1nnc2n1-c1ccc(-c3ccc(N)nc3)cc1N(c1ccc(Cl)cc1)C[C@@H]2C",
    "pIC50": 6.10
  }
]

Please find the next compound below.
Look up pIC50: "Cc1noc2c1-c1ccc(-c3ccc(N)nc3)cc1N(c1ccc(C#N)cc1)CC2"
7.19
